Examples of compounds with documented IC50 follow.
Target: Amine oxidase [flavin-containing] B (Rattus norvegicus, UniProt P19643)
Sequence (P19643 whole entry): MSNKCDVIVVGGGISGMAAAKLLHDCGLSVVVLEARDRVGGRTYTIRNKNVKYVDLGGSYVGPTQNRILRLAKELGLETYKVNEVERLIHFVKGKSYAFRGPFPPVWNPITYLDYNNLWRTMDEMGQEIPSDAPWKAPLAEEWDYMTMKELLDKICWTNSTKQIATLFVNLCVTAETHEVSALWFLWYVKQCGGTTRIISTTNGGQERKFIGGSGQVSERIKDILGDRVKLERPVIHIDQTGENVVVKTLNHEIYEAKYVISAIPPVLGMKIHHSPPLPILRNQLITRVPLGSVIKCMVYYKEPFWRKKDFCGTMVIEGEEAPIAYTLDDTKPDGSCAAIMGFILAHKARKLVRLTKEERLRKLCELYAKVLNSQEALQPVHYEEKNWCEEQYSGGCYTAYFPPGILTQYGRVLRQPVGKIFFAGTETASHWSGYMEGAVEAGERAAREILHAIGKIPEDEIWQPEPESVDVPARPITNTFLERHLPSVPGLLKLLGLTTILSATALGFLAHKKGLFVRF
MEASURED_ATTRIBUTE: IC50

COMPOUND_SMILES	RECORDED_MEASUREMENT
CCNc1cncc(N(C)CC)c1CN	300 µM
CNc1ccccc1CN	> 100 µM
CCOc1cncc(OCC)c1CN.Cl.Cl	> 1000 µM
CCNc1ccccc1CN	> 100 µM
NCc1ccncc1NC1CCCC1	> 100 µM
CC(C)Nc1cnccc1CN	2000 µM
NCc1ccncc1N	> 2000 µM
Cl.Cl.NCc1c(OCCO)cncc1OCCO.O.O.O	> 1000 µM
CC(C)(C)Sc1cncc(SC(C)(C)C)c1CN	> 1000 µM
NCc1ccncc1NC1CCCCCC1	> 100 µM
NCc1ccncc1NCC1CCCCC1	70 µM
CCOc1cncc(OCc2ccccc2)c1CN	1000 µM
CCNc1cnccc1CN	> 170 µM
CNc1cncc(N(C)C)c1CN	250 µM
